Parameter INHIBITION: see the listing below.
- Tested on: Plasmodium berghei
- measurement-description: Screen against P. berghei liver stage (PbLuc), transformed with Luciferase, at 10uM
- Type: functional, HepG2
- experimental-parameters: tested at 10 uM
The whole screen tested about 69,000 compounds, of which about 8,600 (12%) showed an effect of 50% or more. This is one part of a sample in which strong results are shown more often than they occur.
result-type: INHIBITION (%)

# compound, result-type, quantitative-readout
records = [
    ("Cc1occc1C(=O)N1Cc2nccn2CC(CN(C)C)C1 (centres undefined)", "INHIBITION", 44.8),
    ("Cc1cc(=O)n(CCNC(=O)c2ccccc2Cl)cn1", "INHIBITION", -62.1),
    ("CCC(C)NC(=O)c1cc(Br)c2c(c1)OCCO2 (centres undefined)", "INHIBITION", 23.5),
    ("OCCNc1cc(-c2ccncc2)ncn1", "INHIBITION", 47.1),
    ("O=C(c1ccc(-n2cccc2)c(F)c1)N1CCCN2CCCC2C1 (centres undefined)", "INHIBITION", -33.9),
    ("CN(C)[C@@H]1CCN(C(=O)NC2CCCC2)[C@H]1Cc1ccncc1", "INHIBITION", 23.3),
    ("CC(C)C[C@H](NC(=O)Cc1csc(-c2cccc(Cl)c2)n1)C(=O)O", "INHIBITION", 40.8),
    ("COCC1CN(C(=O)COc2ccccc2)Cc2ncn(C)c21 (centres undefined)", "INHIBITION", 51.2),
    ("O=C(NC1CCCC1)N1CCC2(CC1)CC(Oc1cccnc1)CO2 (centres undefined)", "INHIBITION", 9.63),
    ("COCC1CN(C(=O)CS(C)(=O)=O)Cc2ncn(CC3CC3)c21 (centres undefined)", "INHIBITION", 50),
    ("CCS(=O)(=O)N1Cc2ncn(CC3CC3)c2C(COC)C1 (centres undefined)", "INHIBITION", 11.5),
    ("COCC1CN(CC2CC2)Cc2ncn(CC3CC3)c21 (centres undefined)", "INHIBITION", 13.5),
    ("CCC1COCCN1C(=O)NCc1cccc(-c2cnn(C)c2)c1 (centres undefined)", "INHIBITION", 21.2),
    ("CN(Cc1nnc(C2CC2)n1C)S(=O)(=O)c1ccc(F)c(C#N)c1", "INHIBITION", -6.46),
    ("O=C1CC2(CCCCN2C(=O)c2ccco2)CN1c1cccnc1 (centres undefined)", "INHIBITION", 76.5),
    ("C[C@H](O)CNc1cc(-c2ccccc2)ncn1", "INHIBITION", 26.3),
    ("CN1CCN(Cc2ccc(-c3ccc(C(N)=O)cc3)nc2)CC1", "INHIBITION", 24.2),
    ("CCOCC1CN(S(=O)(=O)C2CC2)Cc2ncn(CC3CC3)c21 (centres undefined)", "INHIBITION", 7.53),
    ("COCC1CN(S(=O)(=O)C2CC2)Cc2ncn(CC3CC3)c21 (centres undefined)", "INHIBITION", 51),
    ("COC(=O)C(NC(=O)CCOC(C)C)c1cc(F)ccc1F (centres undefined)", "INHIBITION", -19.9),
    ("CS(=O)(=O)NCC1CCCN(C(=O)c2ccco2)C1 (centres undefined)", "INHIBITION", -14.6),
    ("CC(C)NC(=O)CS(=O)(=O)Cc1coc(-c2ccc(F)cc2)n1", "INHIBITION", 33.8),
    ("O=C1CC2(CCCCN2C(=O)Cc2ccccc2)CN1c1cccnc1 (centres undefined)", "INHIBITION", 70.1),
    ("Cn1ccc(C(=O)N2CCCCC23CC(=O)N(Cc2ccccc2)C3)n1 (centres undefined)", "INHIBITION", -52.9),
]

---

- Test system: Plasmodium berghei
- measurement-description: Screen against P. berghei liver stage (PbLuc), transformed with Luciferase, at 10uM
- Assay type: functional, HepG2
- experimental-parameters: tested at 10 uM
Screen size: about 69,000 compounds; about 8,600 (12%) showed an effect of 50% or more. What follows is part of a selection rich in strong results, with near analogues and random picks from the rest.
Below, each entry is listed alongside its reported INHIBITION.
result-type: INHIBITION (%)

# molecule, target-system, quantitative-readout
records = [
    ("O=c1cc(C2CCNCC2)nc(Cc2cccc(Cl)c2)[nH]1", "Plasmodium berghei", 52.2),
    ("Cc1ccnc(C2CCCN2C(=O)c2cnccn2)n1 (stereo unspecified)", "Plasmodium berghei", 3.91),
    ("Cc1nc(S(=O)(=O)N2CCC3(CCCCC3)C2)cn1C", "Plasmodium berghei", -9.2),
    ("O=c1cc(C2CCNCC2)nc(CCc2ccccn2)[nH]1", "Plasmodium berghei", -0.273),
    ("Cc1cc(NCCCc2c(C)noc2C)nc(N)n1", "Plasmodium berghei", 35),
    ("COC(=O)CCc1c(C)nn(-c2nc(C)cc(=O)[nH]2)c1C", "Plasmodium berghei", -12.6),
]

---

- Test system: Plasmodium berghei
- measurement-description: Screen against P. berghei liver stage (PbLuc), transformed with Luciferase, at 10uM
- Assay type: functional, HepG2
- experimental-parameters: tested at 10 uM
Hit rate of the full screen: of about 69,000 compounds, about 8,600 (12%) showed an effect of 50% or more. The list comes from a sample in which strong results are over-represented; it also holds close analogues and randomly drawn compounds.

# compound, INHIBITION, %
records = [
    ("O=C(O)c1c(-c2ccncc2)ncc2c1CCN(Cc1ccco1)C2", 26.5),
    ("Cc1cc(NC(=O)NCC(c2ccccc2)N2CCOCC2)n(C)n1 (configuration not stated)", -2.53),
    ("O=C(NC1CCCC1)C1CCN(c2cc(-n3ccnc3)ncn2)CC1", 48),
    ("Cc1csc(C2CCCCN2C(=O)c2cc(Cl)c[nH]2)n1 (configuration not stated)", -19.4),
    ("COCCN(Cc1ccoc1)C(=O)c1ccccn1", 11.8),
    ("CN(C(=O)c1ccccn1)c1nnc(C2CCOC2)s1 (configuration not stated)", -13.745),
    ("Cc1ccc(CNC(=O)c2nc3c(n2C)CCN(c2ncccn2)C3)o1", 48.4),
    ("CCCN(C(=O)c1cnc(C)cn1)c1nc2c(s1)CCc1c-2cnn1C", 44.8),
    ("CCCN(C(=O)COC)c1nc2c(s1)CCc1c-2cnn1C", 5.13),
    ("COc1ccc2c(OCC(=O)NC(C)(C)C)ccnc2c1", 29.6),
    ("Cc1cc(NC(=O)CN2CCCC2c2noc(C(C)C)n2)no1 (configuration not stated)", 50.3),
    ("O=S(=O)(Cc1c(F)cccc1F)NCCOc1cccnc1", 42.4),
    ("Cc1oncc1C(=O)N[C@@H]1CN(Cc2ccco2)C[C@@H]2CCCO[C@@H]21", 0.453),
    ("CCc1nc(C2CCCN2C(=O)c2nccnc2N)no1 (configuration not stated)", -3.18),
    ("NC(=O)NC(CC(=O)NCCc1cccc(F)c1)c1ccccc1 (configuration not stated)", 20.5),
    ("CCCN(C(=O)c1cnccn1)c1nc2c(s1)CCc1c-2cnn1C", 29.2),
    ("Cc1cc(NC(=O)CN2CCCC2c2noc(C(C)C)n2)n(C)n1 (configuration not stated)", 6.81),
    ("O=C(NCC1CCCOC1)c1ccc(-c2ccccc2)[nH]c1=O (configuration not stated)", -29.1),
    ("CN(Cc1n[nH]c2c1CCCCC2)C(=O)c1cc(-c2cccn2C)n[nH]1", -89.3),
    ("CCc1ocnc1C(=O)N1CCCC1c1noc(C(C)C)n1 (configuration not stated)", 11.7),
    ("CNC(=O)[C@@H](CC(C)C)N1CCC[C@H]1C(=O)N(C)Cc1ccccc1", 25.3),
    ("CC(C)c1nc(C2CCCN2Cc2ccno2)no1 (configuration not stated)", 17),
    ("COCCN(C(=O)c1cnccn1)c1nc2c(s1)CCc1c-2cnn1C", 11.1),
    ("O=C(NS(=O)(=O)c1ccccc1)c1ccccc1F", 14.8),
    ("CCCN(C(=O)c1ccccn1)c1nc2c(s1)CCc1c-2cnn1C", 63.1),
    ("CC(C)c1nc(C2CCCN2Cc2ccccc2C#N)no1 (configuration not stated)", 22.5),
    ("O=C(NCc1ccc(-n2cncn2)nc1)c1cc(Cl)ccn1", 45),
    ("CN1C(=O)COc2ccc(C(=O)Cn3cnc4ccccc4c3=O)cc21", -35.1),
    ("Cc1nc(C)n(C2CCCN(C(=O)c3ccc4[nH]nnc4c3)C2)n1 (configuration not stated)", 21.9),
    ("COCCN(C(=O)c1ccccn1)c1nc2c(s1)CCc1c-2cnn1C", 59.3),
    ("CCn1nc2c(cc1=O)CN(Cc1nc(C)c(C)o1)CC2", -29.7),
    ("CCc1c(C(=O)Nc2ccc(F)c(C(=O)NC)c2)cnn1CC(C)C", 30.9),
    ("Cc1ccc(C(=O)N2CCCC3(CCCC(=O)N3C)C2)cc1F (configuration not stated)", 15.7),
    ("CC(c1ccc(F)cc1F)N1CCN(CCC(=O)NC(N)=O)CC1 (configuration not stated)", -8),
    ("COC(=O)[C@H]1CN(C(=O)c2cscn2)C[C@@H]1c1ccc(F)cc1", 32.8),
    ("CC(C)NC(=O)c1cc2c(nc1N(C)C)CCN(S(=O)(=O)C1CC1)CC2", -37.9),
    ("CN1CC(=O)N(c2cccnc2)CC12CCN(C(=O)C1CCCCC1)C2 (configuration not stated)", 31.2),
    ("Cc1ncccc1CNC1CCCN(Cc2noc(C3CC3)n2)C1 (configuration not stated)", 46.2),
    ("CC(C)Cn1ncc(C(=O)NS(=O)(=O)C2CCCC2)c1C1CC1", 58.8),
    ("CC(C)c1nc(C2CCCN2C(=O)c2nccnc2N)no1 (configuration not stated)", 61.1),
    ("O=C(OCc1cc(=O)n2cc(Br)ccc2n1)c1ccc2c(c1)OCO2", 19.8),
    ("CC(=O)N1CCN(Cc2cccc3c2sc2ccccc23)CC(O)C1 (configuration not stated)", 84.6),
    ("Cc1ccc(C(=O)N2C[C@@H]3OCCN(CCN4CCCC4)[C@@H]3C2)cn1", 19.9),
    ("CC(=O)N1CCN(Cc2c(C)sc3ccccc23)CC(O)C1 (configuration not stated)", 35.4),
    ("CN(C(=O)c1ccccn1)c1nc2c(s1)CCc1c-2cnn1C", 74.5),
    ("CC(c1ccc(F)cc1F)N1CCN(CCC(=O)O)CC1 (configuration not stated)", -17.7),
    ("O=C(NC1CCN(c2cc(-n3ccnc3)ncn2)CC1)c1ccncc1", 69.1),
]
